Origin of the recorded values: PubChem BioAssay

Test: inhibitors of hydroxyurea-induced Chk1 phosphorylation, primary screen, imaging, HeLa, phospho-Chk1 nuclear intensity (AID 1187); further: test concentration not given here
Conditions: hydroxyurea-induced phospho-Chk1 immunofluorescence imaging, higher = more signal
Label True when z-score >= -0.1; otherwise False.

compound: CC(CO)N1C(=O)[C@@H]2[C@H]3C(=O)OCC=C[C@H]3OC23C=CCN(C(C)(C)C)C(=O)[C@@H]13 (some centres not stated)
label.class: False

compound: COc1cc(CO)cc(I)c1O[C@H]1C=C(C(=O)NCCO)C[C@@H](NCc2ccc(F)cc2)[C@@H]1O
label.class: False

compound: CCCCCCc1nc(-c2cc(C)c(OC)c(C)c2)c(C)c2c1[Si](C(C)C)(C(C)C)OC2
label.class: True

compound: C[N+](C)(C)CCCCCCNC(=O)[C@H]1C[C@H]2C(=O)NCC(=O)N2[C@H]1c1ccc(O)cc1
label.class: False

compound: COc1ccc([Si](C)(C)[C@H]2[C@H](CCO)O[C@@]3(C(=O)N(Cc4cccc(N5C(=O)COc6ccccc65)c4)c4ccccc43)[C@@H]2C)cc1
label.class: True

compound: C=C(C)C1CCC(C(O)C2C=CC3C(=O)N(C)C(=O)C3N2N2CCCCC2)CC1 (configuration not stated)
label.class: True

compound: NCCCCCCNC(=O)[C@@H]1C[C@@H]2C(=O)N[C@@H](CCCCN)C(=O)N2[C@@H]1c1cccc(OCCO)c1
label.class: False
